- Tested on: Human immunodeficiency virus 1
- Assay info: Antiviral activity against HIV1 infected in human CEM/TK- cells assessed as inhibition of virus-induced cytopathogenicity
- Assay type: functional, organism-based
Activity calls are given as the source filed them. The rule behind the calls is not given here.

| Chem smiles | Experimental system | inhibition |
| --- | --- | --- |
| Cc1cn([C@H]2C[C@H](N=[N+]=[N-])[C@@H](COP(=O)(O)Nc3ccncc3)O2)c(=O)[nH]c1=O | Human immunodeficiency virus 1 | inactive |
| Cc1cn([C@H]2C[C@H](N=[N+]=[N-])[C@@H](COP(=O)(O)Nc3cccnc3)O2)c(=O)[nH]c1=O | Human immunodeficiency virus 1 | inactive |
| CCN(CC)CC.Cc1cn([C@H]2C[C@H](N=[N+]=[N-])[C@@H](COP(=O)(O)Nc3ccc(Cl)cc3)O2)c(=O)[nH]c1=O | Human immunodeficiency virus 1 | inactive |
| O=c1ccn([C@H]2CC[C@@H](COP(=O)(O)Nc3cccnc3)O2)c(=O)[nH]1 | Human immunodeficiency virus 1 | inactive |
